# measurement-notes: Phase 1 trial, pharmacokinetics (Example 2)
# condition-set: human, in vivo, mean terminal T1/2, Day 1, 1-60 mg, watching time window 48 hrs
readout-name: half-life

> print(dat)
                                smiles.text  recorded.value
1  Cc1ccc(C(=O)Nc2ccc(CN3CCN(C)CC3)c(C(F)(F)F)c2)cc1C#Cc1cnc2[nH]ncc2c1  17.5 to 36.5 h

###

# measurement-notes: Phase 1 trial, pharmacokinetics (Example 2)
# condition-set: human, in vivo, median Tmax, Day 27, QOD
readout-name: Tmax

> print(dat)
                                smiles.text  readout.name  recorded.value
1  Cc1ccc(C(=O)Nc2ccc(CN3CCN(C)CC3)c(C(F)(F)F)c2)cc1C#Cc1cnc2[nH]ncc2c1          Tmax        4 to 6 h

###

# measurement-notes: Phase 1 trial, pharmacokinetics (Example 2)
# condition-set: human, in vivo, median Tmax, Day 1, 1-60 mg
readout-name: Tmax

> print(dat)
                                smiles.text  readout.name  recorded.value
1  Cc1ccc(C(=O)Nc2ccc(CN3CCN(C)CC3)c(C(F)(F)F)c2)cc1C#Cc1cnc2[nH]ncc2c1          Tmax        4 to 8 h

###

# measurement-notes: Phase 1 trial, pharmacokinetics (Example 2)
# condition-set: human, in vivo, mean terminal T1/2, Day 27, watching time window 48 hrs
# Description: The eligible patients received continuous treatment until disease progression or unacceptable toxicity, consent withdrawal, or death. The primary efficacy endpoints were major cytogenetic response (MCyR) for CP and complete hematological response (CHR) for AP. MCyR includes partial cytogenetic response (PCyR) and complete cytogenetic response (CCyR). Blood samples were collected at various time points on Day 1-2 and Day 27-28 during cycle 1 for PK analyses.
readout-name: half-life

> print(dat)
                                smiles.text  readout.name  recorded.value
1  Cc1ccc(C(=O)Nc2ccc(CN3CCN(C)CC3)c(C(F)(F)F)c2)cc1C#Cc1cnc2[nH]ncc2c1     half-life  19.8 to 42.5 h
